Test system: RPMI-8226 leukemia
Assay: NCI tumour cell line growth inhibition, 48 h
quantity_measured: TGI (µM)

compound | relation_sign | observed_measurement
Cc1ccc(C(=O)c2[nH]c(NCc3ccccc3)c(C(=S)Nc3ccccc3)c2N)cc1 | = | 5
COc1cc2c(cc1OCCCN1CCN(CCCOc3cc4c(cc3OC)C(=O)N3C[C@H](F)C[C@H]3C=N4)CC1)N=C[C@@H]1C[C@@H](F)CN1C2=O | = | 1.04
COc1ccc(-c2c(C#N)c(N)nc(Sc3ccccc3N)c2C#N)cc1 | > | 100
O=[N+]([O-])C(=C1c2ccccc2-c2ccccc21)[N+](=O)[O-] | > | 100
CN1C=C(C(N)=O)Cc2ccsc21 | > | 100
O=C(/C=C/c1cccc(Cl)c1)c1ccccc1 | = | 9.04
CS(C)(=O)=Nn1c(=O)n2n(c1=O)[C@H]1CC[C@@H]2C1 | > | 100
Cc1nc2ccccc2c(/C=C/c2ccc(C(F)(F)F)cc2)c1C(=O)/C=C/c1ccccc1 | = | 4.64
O=C1C[C@@H]2[C@@H](C=CC23CCCC3)N1O | > | 100
CCOC1OC(CO[Si](C)(C)C(C)(C)C)C(O)CC1n1ccc(=O)[nH]c1=O (stereo not given) | > | 100

* * *

Tested on: SK-MEL-5 melanoma
Assay: NCI tumour cell line growth inhibition, 48 h
quantity_measured: TGI (µM)

molecule | measured_on | quantity_measured | relation_sign | observed_measurement
C=C1C(=O)OC2/C=C(CO)/C=C\C3OC3(C)CC(OC(=O)/C(C)=C/COC(C)=O)C12 (stereo not drawn) | SK-MEL-5 melanoma | TGI | = | 15.9
CC(C)OC(=O)NNc1c(Cl)cc(Cl)cc1Cl | SK-MEL-5 melanoma | TGI | = | 60.5
CCc1cccc(CC)c1Nc1nc(-c2ccccc2-c2ccccc2)cs1 | SK-MEL-5 melanoma | TGI | > | 100
ON[C@@H]1C=C[C@H](n2cnc3c(NC4CC4)ncnc32)C1 | SK-MEL-5 melanoma | TGI | > | 100
O=C(N/N=C/c1cc(Cl)cc(Cl)c1[O-])c1ccccc1O.O=C(N/N=C/c1cc(Cl)cc(Cl)c1[O-])c1ccccc1O.[Mn+2] | SK-MEL-5 melanoma | TGI | = | 2.63
COc1cccc(/C=C2\COc3ccc(O)c(O)c3C2=O)c1OC | SK-MEL-5 melanoma | TGI | = | 4.3
Cc1ccccc1-c1cc(=O)c2cc(C)c(C)c(C(=O)O)c2o1 | SK-MEL-5 melanoma | TGI | > | 100
Fc1nc(-c2c3ccccc3c3sc4ccccc4n23)nc(N2CCOCCOCCOCCOCC2)n1 | SK-MEL-5 melanoma | TGI | > | 100
CCSc1c2cc(OC)ccc2nc2ccc(OC)cc12 | SK-MEL-5 melanoma | TGI | = | 30.3
COC(=O)N1C=CC2=C(C)C3Nc4ccccc4C3C(C)=C2C1 (stereo not drawn) | SK-MEL-5 melanoma | TGI | = | 37.2
COc1cccc2c1C(=O)c1c(O)c3c(c(O)c1C2=O)C[C@@](O)(C(=O)CO)C[C@@H]3OC1CC2C(OCN2CN2COC3C(C)OC(O[C@H]4C[C@](O)(C(=O)CO)Cc5c(O)c6c(c(O)c54)C(=O)c4c(OC)cccc4C6=O)CC32)C(C)O1 (stereo partly drawn) | SK-MEL-5 melanoma | TGI | = | 0.0492
CCC(=O)NC(NNS(=O)(=O)c1ccc(C)cc1)(C(F)(F)F)C(F)(F)F | SK-MEL-5 melanoma | TGI | > | 100
CCOc1ccc(NC(=O)/C=C/c2ccco2)cc1 | SK-MEL-5 melanoma | TGI | > | 100
